System: A549/ATCC NSCLC
Experiment: NCI-60 one-dose screen, 48 h (100 = growth as untreated, 0 = no growth, -100 = all killed)
Conditions: 10 µM unless noted
This is part of a sample that, as a whole, favours compounds with a hit. Of some 83,000 tested, about 20% had one in any assay.
quantity name: growth (%)
Answers are plain numbers, in %.

Report growth for each item below.
1. Cn1ccc(=O)c(C(=O)Nc2nsc3ccc([N+](=O)[O-])cc23)c1
2. CCCCCCC12CCC(=O)N1CCc1cncn12 (centres undefined)
3. Cc1cc(N2CCN(CCNc3ccnc4cc(Cl)ccc34)CC2)nc(N2CCOCC2)n1
4. N#CSc1c[nH]c2cccc(/C=C/C(=O)/C=C(/C=C/c3cccc4[nH]cc(SC#N)c34)OB(F)F)c12
5. COc1ccc(-c2cc(-c3cc(OC)c(OC)c(OC)c3)c(C#N)c(=O)n2CCCCC(=O)NO)cc1

[74.9, 95.3, 71.4, -8.65, 71.9]

###

Test system: CAKI-1 renal
Test: NCI-60 one-dose screen, 48 h
Conditions: 10 µM unless noted
The panel holds about 83,000 compounds, 20% with a hit somewhere; the sample as a whole holds those more often. Active and inactive are the calls of the source. Rule for the calls: active = growth percent below 10; inactive = the rest.
Hello, when you answer, please use one of the following outcomes: active, inactive

{"columns": ["molecule", "group"],
 "data": [
  ["CCOC(=O)c1cc2c(n1Cc1cc(OC)c(OC)c(OC)c1)-c1nc(N)sc1CCC2", "inactive"]
]}

# lookup: test call for CC(C)c1ccc(-n2c(=S)[nH]c3sc4cc(O)ccc4c3c2=O)cc1 inactive

# lookup: test call for O=C(Nn1c2c(sc1=NC1CC1)C(=O)c1ccccc1C2=O)c1cc2ccc1CCc1ccc(cc1)CC2 inactive

# lookup: test call for COc1cc(C2CC(c3ccc(Nc4nc(Nc5ccc(Cl)cc5)nc(Nc5ccc(Cl)cc5)n4)cc3)=NN2C(C)=O)cc(OC)c1OC (stereo not given) inactive

# lookup: test call for Cc1nc2sc(C(=O)Nc3cccc4ccccc34)c(N)c2cc1C(O)c1ccccc1 (stereo not given) inactive

# lookup: test call for NC(=O)c1cc(I)ccc1NC(=O)/C=C/c1ccccc1 inactive

# lookup: test call for COc1ccc(-c2nn(-c3cccc(Cl)c3)cc2-c2cc(-c3ccc(Br)cc3)nc(N)n2)cc1 inactive

# lookup: test call for CCOC(=O)c1c2c(n3cccc(F)c13)C(=O)c1ncccc1C2=O inactive

# lookup: test call for NC(Cc1ccc(O)c([N+](=O)[O-])c1)C(=O)O (stereo not given) inactive

# lookup: test call for NS(=O)(=O)c1ccccc1NC(=O)Nc1nc2ccccc2s1 inactive

# lookup: test call for Nc1c(C(=O)Nc2ccccc2C(F)(F)F)sc2nc3c(cc12)CCC3 inactive

# lookup: test call for O=C(Nc1nc2ccc(C(=O)N3CCN(/C=C/c4ccccc4)CC3)cc2s1)c1ccc(NCCc2ccccc2)c([N+](=O)[O-])c1 inactive

# lookup: test call for S=c1sc2c(Cl)nc(-c3cccnc3)nc2n1-c1ccccc1 inactive

###

Tested on: MCF7 breast
Assay: NCI-60 one-dose screen, 48 h (100 = growth as untreated, 0 = no growth, -100 = all killed)
Conditions: 10 µM unless noted
About 83,000 compounds went through this panel and 20% of them were active in at least one assay; those are over-represented in the sample as a whole.
Assign growth to each entry below.
Answers are plain numbers, in %.

Examples with their reported growth follow.
{"columns": ["compound", "reported value"],
 "data": [
  ["Fc1cccc(Oc2ccc(Nc3ncnc4ccc(OCCCN5CCOCC5)cc34)cc2Cl)c1", 50.4],
  ["O=C(Nc1ccc(Oc2cccc(F)c2)c(Cl)c1)c1cccnc1", 19.6],
  ["c1cc2c(ccc3[nH]c(-c4ccc5[nH]ncc5c4)c4c(c32)CCCC4)n1", 23.3],
  ["N#CSCC1CC(O)(c2ccccc2)CC(c2ccc(F)cc2)O1 (stereo not given)", -17],
  ["O=C(NNC(=O)c1ccc(NC(=O)c2ccccn2)cc1)Nc1ccc([N+](=O)[O-])cc1", 95.7]
]}

Report growth for each item below.
1. O=S(=O)(NCCCNc1nccc(-c2c(-c3ccc(F)c(O)c3)nc3occn23)n1)c1ccc(Cl)cc1
2. Cc1cc(S(=O)(=O)/N=C(\N)n2nc(C)c(C)c2C)c(SCc2ccccc2)cc1Cl
3. COc1ccc(/C=C(\C#N)n2nnc3cc(Cl)ccc32)cc1
4. CN(c1cc2ncc(=O)[nH]c2cc1NC(N)=NCc1ccc(Cl)cc1)C1CCCCC1
5. COc1cc2c(c(OC)c1OC)CCC(c1cccc(NC(=O)c3ccc(Br)cc3)c1)O2 (stereo not given)

1. 55.9
2. 70.8
3. 1.74
4. -44.2
5. 73.2
